These entries and their values trace back to ChEMBL document CHEMBL5665443.

Molecular target: Endonuclease 8-like 2 (Homo sapiens) (UniProt Q969S2);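 note: fluorescence at 594 nm reports NEIL2 cutting and release of a quenched double-stranded DNA oligo substrate, reduced signal read as inhibition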
Sequence (whole entry): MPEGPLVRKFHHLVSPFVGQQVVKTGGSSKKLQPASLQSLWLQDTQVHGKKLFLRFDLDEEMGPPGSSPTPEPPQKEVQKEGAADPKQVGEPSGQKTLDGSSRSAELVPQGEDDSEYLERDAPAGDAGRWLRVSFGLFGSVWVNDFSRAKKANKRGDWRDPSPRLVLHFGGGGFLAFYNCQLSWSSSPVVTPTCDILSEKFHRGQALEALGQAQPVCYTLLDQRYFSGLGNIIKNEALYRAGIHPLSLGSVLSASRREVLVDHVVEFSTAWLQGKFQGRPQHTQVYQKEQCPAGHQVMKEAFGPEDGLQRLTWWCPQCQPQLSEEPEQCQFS
Conditions: Compound Concentration 10.0 uM, Hit No
Description: Inhibition of NEIL2 by quantifying inhibition of NEIL2-mediated cleavage and dissociation of quenched duplex DNA oligonucleotides, measured as fluorescence at 594 nm.
Each item that follows carries a reported inhibition.
API: value field is a number in %; no unit string.

smiles repr | assay target | unit tag | inhibition
O=C(NCCCn1ccnc1)c1cc2nc(-c3ccccc3)cc(-c3ccccc3)n2n1 | Endonuclease 8-like 2 (Homo sapiens) (UniProt Q969S2) | % | -9.67
Clc1ccc(OC[C@H]2CCN2)cn1 | Endonuclease 8-like 2 (Homo sapiens) (UniProt Q969S2) | % | -6.72
CCC(=O)Nc1cccc(Oc2nc(Nc3ccc(N4CCN(C)CC4)cc3OC)ncc2Cl)c1 | Endonuclease 8-like 2 (Homo sapiens) (UniProt Q969S2) | % | -8.65

Lab note: measured inhibition of O=C(N[C@@H]1CC[C@@H](c2cccc(F)c2F)CN(CC(F)(F)F)C1=O)N1CCC(n2c(=O)[nH]c3ncccc32)CC1 was 4.76

Lab note: measured inhibition of Cc1c(C(=O)Nc2ccc(N3C[C@@H](C)O[C@@H](C)C3)nc2)cccc1-c1ccc(OC(F)(F)F)cc1 was 7.5

----------
Molecular target: Single-strand selective monofunctional uracil DNA glycosylase (Homo sapiens);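 note: enzymatic SMUG1 assay coupled with APE1, reading fluorescence at 594 nm released when a quenched double-stranded DNA oligonucleotide substrate is cleaved and separated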
Conditions: Compound Concentration 10.0 uM, Hit No
Description: Inhibition of SMUG1 by quantifying inhibition of SMUG1-mediated cleavage and dissociation of quenched duplex DNA oligonucleotides, measured as fluorescence at 594 nm. To generate a functional strand incision and increase turn-over this assay is coupled to APE1.
Where a SMILES comes first, the peptide text is derived from it.
Binary classification by inhibition, with 10% as an inclusive lower bound for 1; all other cases are -1.

compound | assay target | category
CCCc1c(OCCCOc2ccc(OCC(=O)O)cc2)ccc(C(C)=O)c1O | Single-strand selective monofunctional uracil DNA glycosylase (Homo sapiens) | -1
CCn1c(CNC(=O)c2nc(Cl)cnc2N)[n+](CC)c2ccc(C(=O)N(C)CCN(C)C)cc21 | Single-strand selective monofunctional uracil DNA glycosylase (Homo sapiens) | 1
O=C(O)c1ccccc1S(=O)(=O)NCCCCN1C(=O)c2cccc3cccc(c23)C1=O | Single-strand selective monofunctional uracil DNA glycosylase (Homo sapiens) | 1

In plain terms: is recorded inhibition at least 10% for CC[C@H](C)[C@H](NC(=O)[C@H](Cc1ccc(O)cc1)NC(=O)[C@@H](NC(=O)[C@H](CCCNC(=N)N)NC(=O)[C@@H](N)CC(=O)O)C(C)C)C(=O)N[C@@H](Cc1cnc[nH]1)C(=O)N[C@H](C)C(=O)O (HELM PEPTIDE1{D.R.V.Y.I.H.[dA]}$$$$V2.0) ?
-1

In plain terms: is recorded inhibition at least 10% for CC1(C)[C@H]2C[C@H](C/C=C\CCCC(=O)O)[C@@H](NC(=O)c3csc4ccc(O)cc34)[C@@H]1C2 ?
-1

In plain terms: is recorded inhibition at least 10% for O=C(Cc1ccc(Cl)c(Cl)c1)N1CCCC[C@H]1CN1CCCC1 ?
-1

In plain terms: is recorded inhibition at least 10% for N[C@@]1(C(=O)O)CC[C@H]2[C@H](C(=O)O)[C@H]21 ?
-1

In plain terms: is recorded inhibition at least 10% for C[C@@H]1CCc2ncc(F)cc2[C@H]2CCCN2c2ccn3ncc(c3n2)C(=O)N1 ?
1

In plain terms: is recorded inhibition at least 10% for Nc1nc2cc(-c3cc(Cl)ccc3Oc3cc(F)c(S(=O)(=O)Nc4ncns4)cc3F)ccc2[nH]1 ?
-1

----------
Biological target: Endonuclease III-like protein 1 (Homo sapiens)
Settings: Compound Concentration 10.0 uM, Hit No
Description: Inhibition of NTHL1 by quantifying inhibition of NTHL1-mediated cleavage and dissociation of quenched duplex DNA oligonucleotides, measured as fluorescence at 594 nm.
Each item that follows carries a reported inhibition.
API: value field is a number in %; no unit string.

compound | unit tag | inhibition
O=C(O)c1n[nH]c2c1C[C@H]1C[C@@H]21 | % | 21.7
O=[N+]([O-])c1ccc(CN2CCOCCOCCN(Cc3ccc([N+](=O)[O-])cc3)CCOCC2)cc1 | % | 23.7
CCS(=O)(=O)c1cc2cc(C[C@](O)(CC(C)(C)c3ccc(F)cc3C(N)=O)C(F)(F)F)[nH]c2cn1 | % | 0.685

Now examine the next entry.
Lab note: measured inhibition of COc1cc(C(=O)NS(=O)(=O)c2ccccc2C)ccc1Cc1cn(C)c2ccc(NC(=O)OC3CCCC3)cc12 was 29.8

----------
Biological target: Adenine DNA glycosylase (Homo sapiens) (UniProt Q9UIF7);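 note: human MUTYH activity read as 594 nm fluorescence from cleavage and release of a quenched DNA duplex, coupled with APE1 for strand incision, lower signal meaning inhibition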
Sequence (Q9UIF7 whole entry): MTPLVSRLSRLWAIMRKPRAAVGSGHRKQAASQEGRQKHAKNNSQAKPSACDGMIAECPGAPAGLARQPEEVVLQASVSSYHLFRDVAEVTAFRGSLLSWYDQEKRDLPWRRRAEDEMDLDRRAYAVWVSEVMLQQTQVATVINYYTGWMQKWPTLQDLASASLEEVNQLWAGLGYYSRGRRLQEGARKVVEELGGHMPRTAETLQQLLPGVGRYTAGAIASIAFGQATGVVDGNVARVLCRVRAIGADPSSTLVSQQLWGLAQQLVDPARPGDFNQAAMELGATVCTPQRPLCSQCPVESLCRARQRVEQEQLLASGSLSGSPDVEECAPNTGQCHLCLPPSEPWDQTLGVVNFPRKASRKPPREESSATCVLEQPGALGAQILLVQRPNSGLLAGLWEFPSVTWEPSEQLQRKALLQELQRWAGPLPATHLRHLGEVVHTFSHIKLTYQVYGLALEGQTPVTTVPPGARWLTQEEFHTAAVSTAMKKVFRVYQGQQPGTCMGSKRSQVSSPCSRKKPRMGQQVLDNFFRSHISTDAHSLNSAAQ
Details: Compound Concentration 1.0 uM, Hit No
Description: Inhibition of MUTYH by quantifying inhibition of MUTYH-mediated cleavage and dissociation of quenched duplex DNA oligonucleotides, measured as fluorescence at 594 nm. To generate a functional strand incision and increase turn-over this assay is coupled to APE1.
Each item that follows carries a reported inhibition.
Remember to quote the unit after the number.

Solved entries (count: 8):
smiles repr | inhibition
CN1CCN(C(=O)C(C)(C)c2ccc(C(=O)Nc3cn4cc(-c5ccncc5)ccc4n3)cc2)CC1 | 33.1%
C[C@@H]1CN(c2cc(-c3nn(C)c4ccc(OC5(C)CC5)cc34)ncn2)C[C@H](C)O1 | -9.65%
COC[C@H](NC(=O)c1ccn(S(C)(=O)=O)c1)C(=O)Nc1nc(-c2cccc(-c3ccn(C)n3)c2)cs1 | 2.68%
c1ccc(-c2oc3ncnc(NC[C@@H]4CCCO4)c3c2-c2ccccc2)cc1 | 3.16%
CN(C)C(=O)/C(C#N)=C/c1ccc(-c2nc3cnc4[nH]ccc4c3n2C2CCCCC2)o1 | -2.18%
CN1CCN(c2ccc(OC(F)(F)F)c(Nc3ncc4c(n3)-c3c(c(C(N)=O)nn3CCO)CC4)c2)CC1 | 27.3%
CC(=O)Nc1cccc(-n2c(=O)n(C3CC3)c(=O)c3c(Nc4ccc(I)cc4F)n(C)c(=O)c(C)c32)c1 | 15.8%
O=C(Nc1ccc(-n2nc(-c3cccnc3)cc2C(F)(F)F)cn1)c1ccc(-c2ccccc2)c(F)c1 | -4.64%

Lab note: measured inhibition of CNc1nc(Nc2cnn([C@H]3CCN(C4COC4)C[C@@H]3F)c2Cl)ncc1C(F)(F)F was -1.03%

Lab note: measured inhibition of N#Cc1ccc(Nc2ccc3[nH]c(=O)[nH]c3c2)c(Cl)c1 was 7.43%

Lab note: measured inhibition of O[C@]1(C(F)(F)F)CCCC[C@H]1Nc1ccc(F)cc1 was -4.37%

----------
Molecular target: Endonuclease III-like protein 1 (Homo sapiens) (UniProt P78549)
Sequence (whole entry): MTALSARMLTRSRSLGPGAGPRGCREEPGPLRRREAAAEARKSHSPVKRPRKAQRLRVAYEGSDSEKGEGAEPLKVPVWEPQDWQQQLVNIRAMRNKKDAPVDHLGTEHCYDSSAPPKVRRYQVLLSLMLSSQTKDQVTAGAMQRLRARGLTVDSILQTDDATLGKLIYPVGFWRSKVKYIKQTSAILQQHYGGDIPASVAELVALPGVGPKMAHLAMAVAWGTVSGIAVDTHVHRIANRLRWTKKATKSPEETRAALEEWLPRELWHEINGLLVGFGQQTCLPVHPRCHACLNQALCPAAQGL
Details: Compound Concentration 10.0 uM, Hit No
Binary classification by inhibition, with 9% as an inclusive lower bound for T; all other cases are F.

Take a look at these entries with their results.
smiles repr | category
CC(=O)Nc1ccc(-c2cc(-c3ccccc3)nc3cc(C(=O)NCCCn4ccnc4)nn23)cc1 | F
CN(C)C(=O)N[C@H]1CC[C@H](CCN2CCN(c3cccc(Cl)c3Cl)CC2)CC1 | F

In plain terms: is recorded inhibition at least 9% for O=C(Nc1ccc(S(=O)(=O)Nc2nccs2)cc1)C(c1ccccc1)c1ccccc1 ?
T

In plain terms: is recorded inhibition at least 9% for O=C(O)Cc1cc(I)c(Oc2ccc(O)c(I)c2)c(I)c1 ?
T

----------
Each item that follows carries a reported inhibition.
Target: Endonuclease III-like protein 1 (Homo sapiens) (UniProt P78549);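 note: enzyme assay tracking NTHL1 cutting and release of a quenched double-stranded DNA oligo substrate, read as fluorescence at 594 nm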
Sequence (whole entry): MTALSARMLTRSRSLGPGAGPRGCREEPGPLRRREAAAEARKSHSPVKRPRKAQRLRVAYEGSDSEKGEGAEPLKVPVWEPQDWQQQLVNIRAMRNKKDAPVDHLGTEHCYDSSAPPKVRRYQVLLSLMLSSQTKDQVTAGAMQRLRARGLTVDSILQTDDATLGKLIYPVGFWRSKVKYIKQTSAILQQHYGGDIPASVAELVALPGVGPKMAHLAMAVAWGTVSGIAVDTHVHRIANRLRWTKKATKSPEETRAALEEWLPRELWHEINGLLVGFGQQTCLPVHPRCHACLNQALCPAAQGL
Conditions: Compound Concentration 10.0 uM, Hit No
Remember to quote the unit after the number.

Lab note: measured inhibition of N#Cc1ccc(NC(=O)Nc2ccccc2Br)c2nn[nH]c12 was 9.25%
